B1: Twister Ribozyme (parent)
chain: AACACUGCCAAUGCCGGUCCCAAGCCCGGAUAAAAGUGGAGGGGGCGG

Variants of: B1
Test Description: self-cleavage, relative activity (ratio to wild type); higher = more cleavage; co-transcriptional
Property Measured: self-cleavage
// keep it numeric: no unit symbol after the value

Please review the entries below; each comes with its answer.
U18G A33U : 0.0323
G24A G38A : 0.101
A22U G47U : 0.67

-- ask Could you share which self-cleavage value was measured for U6C U31C ?
-- reply 0.712

-- ask I am curious: what self-cleavage value has been reported for A11C U12A ?
-- reply 0.907

-- ask Using the record for A4U A35C , report its self-cleavage.
-- reply 0.129

-- ask Which self-cleavage value belongs to G24U G43A ?
-- reply 0.0702

-- ask For the variant A2C A22C , what self-cleavage is on record?
-- reply 0.0812

-- ask Which self-cleavage reading was recorded for the variant C19U G45A ?
-- reply 0.915

-- ask Form field: reported self-cleavage of U6A C19A
-- reply 0.0793

-- ask Bench note: what self-cleavage did G41A G45U show?
-- reply 0.196

Values were extracted from the RNAGym collection of RNA variant scans (doi:10.7554/elife.80360).
